Origin of the recorded values: patent US6867207B2

- System: IL-5 production
- method: In vitro inhibition of IL-5 production in human blood (phytohemagglutinin-stimulated whole blood, ELISA);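 further: values marked with an asterisk were tested at 10 µM and unmarked values at 1 µM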
- Format: cell-based
- experimental.setup: test dose 1×10^−6 M, 48 hours
Listing of recorded % inh. (percentage inhibition of IL-5 production) by entry.
quantity.measured: % inh. (percentage inhibition of IL-5 production) (%)

[[record]]
compound = "O=c1cnn(-c2cc(Cl)c(C(Sc3nc(-c4ccco4)cs3)c3ccc(Cl)c(C(F)(F)F)c3)c(Cl)c2)c(=O)[nH]1 (racemic) [Compound 399]"
measured_value = 93

[[record]]
compound = "Cc1nc(-c2cccc(F)c2)c(C(c2ccc(Cl)cc2)c2ccc(-n3ncc(=O)[nH]c3=O)cc2Cl)s1 (racemic) [Compound 143]"
measured_value = 81

[[record]]
compound = "Cc1sc(-c2cccc(F)c2)nc1C(c1ccc(Cl)cc1)c1c(Cl)cc(-n2ncc(=O)[nH]c2=O)cc1Cl (racemic) [Compound 370]"
measured_value = 76

[[record]]
compound = "O=c1cnn(-c2cc(Cl)c(C(c3ccc(Cl)cc3)c3nnc(-c4ccco4)o3)c(Cl)c2)c(=O)[nH]1 (racemic) [Compound 161]"
measured_value = 91

[[record]]
compound = "CN(C)c1ccnc(SC(c2ccc(Cl)cc2)c2c(Cl)cc(-n3ncc(=O)[nH]c3=O)cc2Cl)n1 (racemic) [Compound 355]"
measured_value = 83

[[record]]
compound = "O=c1cnn(-c2ccc(C(Sc3nc4ccccc4o3)c3ccc(Cl)cc3)c(Cl)c2)c(=O)[nH]1 (racemic) [Compound 71]"
measured_value = 84

